Sourced from ChEMBL document CHEMBL6103561

Target: Induced myeloid leukemia cell differentiation protein Mcl-1 (Homo sapiens)
Sequence (Q07820 whole entry): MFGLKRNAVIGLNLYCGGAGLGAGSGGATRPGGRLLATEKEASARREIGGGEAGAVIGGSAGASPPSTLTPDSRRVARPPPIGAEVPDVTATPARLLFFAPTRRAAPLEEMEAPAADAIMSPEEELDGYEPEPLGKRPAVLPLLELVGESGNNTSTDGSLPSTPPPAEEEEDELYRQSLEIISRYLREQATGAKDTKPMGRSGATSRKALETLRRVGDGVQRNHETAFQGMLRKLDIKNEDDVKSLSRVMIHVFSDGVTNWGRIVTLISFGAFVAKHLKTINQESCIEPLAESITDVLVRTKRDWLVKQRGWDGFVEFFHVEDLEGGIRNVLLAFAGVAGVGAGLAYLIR
compounds and their reported pIC50
Hey, just a heads up that pIC50 is the negative log base 10 of the concentration in molar.

Past entries and their recorded results:
Cc1c(-c2cccc3c(CCCOc4cccc5ccccc45)c(C(=O)O)n(C)c23)c(COc2ccc(S(=O)(=O)F)cc2)nn1C | 5.38
Cc1c(-c2cccc3c(CCCOc4cccc5ccccc45)c(C(=O)O)n(C)c23)c(COc2ccccc2)nn1C | 5.38

Qu. Give its pIC50 value. Item: "Cc1ccc(S(=O)(=O)/N=C2/C=C(Sc3nc[nH]n3)C(=O)c3ccccc32)cc1"
Ans. 7.85

###

// Induced myeloid leukemia cell differentiation protein Mcl-1 (Homo sapiens) Ki records
Note: unit nM is implicit; provide only the numeric part.

Examples with their reported Ki follow.
Cc1cc(OCCCn2cc(-c3cccc(C(F)(F)F)c3)c3cc(C(=O)O)ccc32)cc(C)c1Cl | 400
COc1ccccc1-c1nccc(COc2ccc3cc2C[C@H](C(=O)O)Oc2ncnc4sc(-c5ccc(F)cc5)c(c24)-c2ccc(c(Cl)c2C)CN(CCN2CCN(C)CC2)CO3)n1 | 5.54

Now take the following molecule into account.
Qu. Form: Entry = "Cc1cc(OCCCn2ccc3cc(C(=O)O)ccc32)cc(C)c1Cl" | System = Induced myeloid leukemia cell differentiation protein Mcl-1 (Homo sapiens) | Ki = ____
Ans. 8850
